EXPERIMENT_NOTES: Toxicokinetics in plasma, mouse 90-day study
Assay type: in vivo
MEASUREMENT_SETUP: male, mouse, plasma, po, 25 ppm in diet
ENDPOINT_NAME: Cmax (ng/mL)

COMPOUND: Cn1c(C(F)(F)F)cc(=O)n(-c2cc(Oc3cccnc3OCC(=O)O)c(Cl)cc2F)c1=O [S-3100-CA]
UNIT_SYMBOL: ng/mL
MEASURED_RESULT: 64.9

###

EXPERIMENT_NOTES: 90-day subchronic toxicity study with epyrifenacil in dogs
Assay type: in vivo, dog
MEASUREMENT_SETUP: female, beagle, dog, in vivo, oral

QUERY_SMILES: CCOC(=O)COc1ncccc1Oc1cc(-n2c(=O)cc(C(F)(F)F)n(C)c2=O)c(F)cc1Cl
NOAEL at 90 days (mg/kg/day): 300

###

EXPERIMENT_NOTES: Toxicokinetics in plasma, mouse 90-day study
Format: in vivo
MEASUREMENT_SETUP: male, mouse, plasma, po, 5 ppm in diet
ENDPOINT_NAME: Cmax

QUERY_SMILES: Cn1c(C(F)(F)F)cc(=O)n(-c2cc(Oc3cccnc3OCC(=O)O)c(Cl)cc2F)c1=O
MEASURED_RESULT: 12.8 ng/mL

###

EXPERIMENT_NOTES: Toxicokinetics in plasma, rat 90-day study
Format: in vivo
MEASUREMENT_SETUP: male, rat, plasma, po, 300 ppm in diet
ENDPOINT_NAME: Cmax

QUERY_SMILES: Cn1c(C(F)(F)F)cc(=O)n(-c2cc(Oc3cccnc3OCC(=O)O)c(Cl)cc2F)c1=O
MEASURED_RESULT: 248 ng/mL

###

EXPERIMENT_NOTES: Toxicokinetics in plasma, rat 90-day study
Format: in vivo
MEASUREMENT_SETUP: female, Crl:CD(SD), rat, plasma, po, 19 mg/kg bw/day

COMPOUND: Cn1c(C(F)(F)F)cc(=O)n(-c2cc(Oc3cccnc3OCC(=O)O)c(Cl)cc2F)c1=O [S-3100-CA]
Cmax, ng/mL: 266

###

EXPERIMENT_NOTES: Toxicokinetics in plasma, rat 90-day study
Format: in vivo
MEASUREMENT_SETUP: male, Crl:CD(SD), rat, plasma, po, 3 mg/kg bw/day

QUERY_SMILES: Cn1c(C(F)(F)F)cc(=O)n(-c2cc(Oc3cccnc3OCC(=O)O)c(Cl)cc2F)c1=O
UNIT_SYMBOL: ng·h/mL
AUC(0-t): 467

###

EXPERIMENT_NOTES: 90-day subchronic toxicity study with epyrifenacil in dogs
Assay type: in vivo, dog
MEASUREMENT_SETUP: male, beagle, dog, in vivo, oral

MOLECULE: CCOC(=O)COc1ncccc1Oc1cc(-n2c(=O)cc(C(F)(F)F)n(C)c2=O)c(F)cc1Cl [epyrifenacil]
NOAEL at 90 days (mg/kg/day): 100

###

Measured pIC50 of individual entries
EXPERIMENTAL_TARGET: protoporphyrinogen oxidase (PPO) (Rattus norvegicus, UniProt D3ZVN7)
Sequence (D3ZVN7 1-488): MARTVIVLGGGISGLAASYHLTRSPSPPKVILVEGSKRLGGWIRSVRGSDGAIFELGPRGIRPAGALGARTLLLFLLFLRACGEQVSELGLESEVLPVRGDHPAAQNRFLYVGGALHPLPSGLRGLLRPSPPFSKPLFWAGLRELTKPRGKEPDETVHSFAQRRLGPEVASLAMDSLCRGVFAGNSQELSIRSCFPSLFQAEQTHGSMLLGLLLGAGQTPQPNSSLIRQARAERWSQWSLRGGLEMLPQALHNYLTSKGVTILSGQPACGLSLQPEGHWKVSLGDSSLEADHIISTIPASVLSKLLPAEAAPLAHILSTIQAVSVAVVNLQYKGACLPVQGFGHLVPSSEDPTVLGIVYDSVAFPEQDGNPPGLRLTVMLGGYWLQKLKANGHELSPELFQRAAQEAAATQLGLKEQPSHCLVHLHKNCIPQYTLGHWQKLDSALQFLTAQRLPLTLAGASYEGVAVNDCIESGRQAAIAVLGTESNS
pIC50: −log10 of the molar value.

QUERY_SMILES: Cn1c(C(F)(F)F)cc(=O)n(-c2cc(Oc3cccnc3OCC(=O)O)c(Cl)cc2F)c1=O
pIC50: 8.82

QUERY_SMILES: CCOC(=O)COc1ncccc1Oc1cc(-n2c(=O)cc(C(F)(F)F)n(C)c2=O)c(F)cc1Cl
pIC50: 8.59

###

EXPERIMENT_NOTES: Toxicokinetics in plasma, mouse 90-day study
Assay type: in vivo
MEASUREMENT_SETUP: male, mouse, plasma, po, 100 ppm in diet

QUERY_SMILES: Cn1c(C(F)(F)F)cc(=O)n(-c2cc(Oc3cccnc3OCC(=O)O)c(Cl)cc2F)c1=O
UNIT_SYMBOL: ng·h/mL
AUC(0-t): 10100

###

EXPERIMENT_NOTES: Toxicokinetics in plasma, mouse 90-day study
Format: in vivo
MEASUREMENT_SETUP: female, Crl:CD1(ICR), mouse, plasma, po, 4.1 mg/kg bw/day

QUERY_SMILES: Cn1c(C(F)(F)F)cc(=O)n(-c2cc(Oc3cccnc3OCC(=O)O)c(Cl)cc2F)c1=O
UNIT_SYMBOL: ng·h/mL
AUC(0-t): 2240

###

EXPERIMENT_NOTES: Toxicokinetics in plasma, rat 90-day study
Assay type: in vivo
MEASUREMENT_SETUP: female, Crl:CD(SD), rat, plasma, po, 50 ppm

QUERY_SMILES: Cn1c(C(F)(F)F)cc(=O)n(-c2cc(Oc3cccnc3OCC(=O)O)c(Cl)cc2F)c1=O
AUC(0-t) / ng·h/mL: 879

###

EXPERIMENT_NOTES: Toxicokinetics in plasma, rat 90-day study
Type: in vivo
MEASUREMENT_SETUP: female, rat, plasma, po, 800 ppm in diet

QUERY_SMILES: Cn1c(C(F)(F)F)cc(=O)n(-c2cc(Oc3cccnc3OCC(=O)O)c(Cl)cc2F)c1=O
UNIT_SYMBOL: ng/mL
Cmax: 756

###

EXPERIMENT_NOTES: Toxicokinetics in plasma, mouse 90-day study
Format: in vivo
MEASUREMENT_SETUP: female, mouse, plasma, po, 25 ppm in diet
ENDPOINT_NAME: AUC(0-t) (ng·h/mL)

COMPOUND: Cn1c(C(F)(F)F)cc(=O)n(-c2cc(Oc3cccnc3OCC(=O)O)c(Cl)cc2F)c1=O [S-3100-CA]
ENDPOINT_NAME: AUC(0-t)
MEASURED_RESULT: 2240

###

EXPERIMENT_NOTES: Toxicokinetics in plasma, mouse 90-day study
Format: in vivo
MEASUREMENT_SETUP: female, Crl:CD1(ICR), mouse, plasma, po, 4.1 mg/kg bw/day

MOLECULE: Cn1c(C(F)(F)F)cc(=O)n(-c2cc(Oc3cccnc3OCC(=O)O)c(Cl)cc2F)c1=O [S-3100-CA]
Cmax [ng/mL]: 135

###

EXPERIMENT_NOTES: Toxicokinetics in plasma, mouse 90-day study
Type: in vivo
MEASUREMENT_SETUP: male, mouse, plasma, po, 25 ppm in diet

COMPOUND: Cn1c(C(F)(F)F)cc(=O)n(-c2cc(Oc3cccnc3OCC(=O)O)c(Cl)cc2F)c1=O [S-3100-CA]
UNIT_SYMBOL: ng·h/mL
AUC(0-t): 4580

###

EXPERIMENT_NOTES: Toxicokinetics in plasma, rat 90-day study
Assay type: in vivo
MEASUREMENT_SETUP: female, Crl:CD(SD), rat, plasma, po, 19 mg/kg bw/day

MOLECULE: Cn1c(C(F)(F)F)cc(=O)n(-c2cc(Oc3cccnc3OCC(=O)O)c(Cl)cc2F)c1=O [S-3100-CA]
AUC(0-t), ng·h/mL: 5020
